target: LPA1 (Homo sapiens, UniProt Q92633); experiment: LPA1 Migration Assay (Oris); conditions: read-out: Cell Migration EC50
Sequence (Q92633 whole entry): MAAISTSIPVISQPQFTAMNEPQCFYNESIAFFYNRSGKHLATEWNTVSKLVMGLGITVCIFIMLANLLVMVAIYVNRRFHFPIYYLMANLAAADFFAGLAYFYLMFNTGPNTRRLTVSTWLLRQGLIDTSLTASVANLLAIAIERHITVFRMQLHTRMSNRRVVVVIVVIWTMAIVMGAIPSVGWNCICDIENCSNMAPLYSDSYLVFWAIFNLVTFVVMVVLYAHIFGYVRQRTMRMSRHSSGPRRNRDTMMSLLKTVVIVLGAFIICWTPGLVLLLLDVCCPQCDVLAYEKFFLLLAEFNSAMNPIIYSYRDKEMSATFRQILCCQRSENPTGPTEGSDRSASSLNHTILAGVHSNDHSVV
Give measured EC50 for each item. Keep answers brief.

# example entries with known answers
>>> df
                            compound_string  quantity_name    data_value
0  C[C@@H](OC(=O)Nc1c(-c2cc3sc(-c4ccc(C5(C(=O)O)CC5)c(F)c4F)cc3s2)cnn1C)c1ccccc1           EC50  50 to 500 nM
1  Cc1noc(-c2ccc(-c3cc(F)c(Oc4ccsc4C(=O)O)c(F)c3)cc2)c1NC(=O)O[C@H](C)c1ccccc1           EC50       < 50 nM
2  C[C@@H](OC(=O)Nc1c(-c2ccc(-c3ccc(C4(C(=O)O)CC4)cc3)cc2)nn2cccnc12)c1ccccc1           EC50      > 500 nM
3  C[C@@H](OC(=O)Nc1sncc1C#Cc1cc2sc(C3(C(=O)O)CC3)cc2s1)c1ccccc1           EC50      > 500 nM
4  Cc1noc(-c2ccc(-c3ccc(Oc4c(C(=O)O)n[nH]c4C)cc3)cc2)c1NC(=O)O[C@H](C)c1ccccc1           EC50       < 50 nM

# batch: return EC50 for each of the 2 compounds below
1. Cc1nsc(-c2cc3sc(-c4ccc(CC(=O)O)c(Cl)c4)cc3s2)c1NC(=O)O[C@H](C)c1ccccc1
2. CNS(=O)(=O)c1ccc(-c2ccc(-c3onc(C)c3NC(=O)O[C@H](C)c3ccccc3)cc2)cc1

## Result
> 500 nM
> 500 nM

----------
Target: LPA/S1P GPCR of interest (Homo sapiens)
Experiment: Beta-Arrestin based assay (PathHunter)
Procedure: CMV promoter based DNA constructs expressing a fusion of the LPA/S1P GPCR of interest and ProLink™ tag were used to transfect EA Parental™ CHO cells (DiscoverX, Fremont, Calif.) using a FuGENE® transfection kit (Roche). Beta-Arrestin based assays were conducted 24-48 hrs post transfection using PathHunter® assay kits (DiscoverX, Fremont, Calif.). […] End point luminescence data were plotted and fit to a 4 parameter logistic function to obtain IC50 values. […]
pEC50: −log10 of the molar value.
QUANTITY NAME: pEC50

>>> df
                                   molecule  data_value
0  C[C@@H](OC(=O)Nc1c(-c2ccc(-c3ncc(C4(C(=O)O)CC4)s3)cc2)nnn1C)c1ccccc1 [IT239]      < 6.30
1  C[C@@H](OC(=O)Nc1c(-c2ccc(-c3ccc(Oc4ccccc4C(=O)O)c(F)c3)cc2)nnn1C)c1ccccc1 [IT447]      > 7.30
2  CCOC(=O)c1ccccc1Oc1ccc(-c2ccc(-c3nnn(C)c3NC(=O)O[C@H](C)c3ccccc3)cc2)cc1 [IT477]      > 7.30

Count: 7. Required value per item: pEC50.
1. Cc1noc(-c2ccc(-c3ccc(Oc4c(C(=O)O)n[nH]c4C)cc3)cc2)c1NC(=O)O[C@H](C)c1ccccc1 [IT485]
2. C[C@@H](OC(=O)Nc1nn(C)cc1-c1ccc(-c2cc(F)c(Oc3ncccc3C(=O)O)c(F)c2)cc1)c1ccccc1 [IT472]
3. C[C@@H](OC(=O)Nc1c(C#Cc2ccc(Oc3ccccc3C(=O)O)cc2)cnn1C)c1ccccc1 [IT301]
4. C[C@@H](OC(=O)Nc1c(-c2cc3sc(-c4ccc(C5(C(=O)O)CC5)s4)cc3s2)nnn1C)c1ccccc1 [IT273]
5. Cc1noc(-c2ccc(-c3ccc(NS(C)(=O)=O)cc3)cc2)c1NC(=O)O[C@H](C)c1ccccc1 [IT195]
6. C[C@@H](OC(=O)Nc1c(-c2cc(F)c(-c3nc4sc(C5(C(=O)O)CC5)cc4s3)cc2F)cnn1C)c1ccccc1 [IT279]
7. Cc1nsc(-c2cc3sc(-c4ccc(C5(C(=O)O)CC5)c(F)c4)cc3s2)c1NC(=O)O[C@H](C)c1ccccc1 [IT297]

## Result
1: > 7.30; 2: < 6.30; 3: > 7.30; 4: 6.30 to 7.30; 5: 6.30 to 7.30; 6: > 7.30; 7: > 7.30

Below are 3 molecules. Give each one its pEC50.
1. Cc1nsc(-c2ccc(-c3nnc(C4(C(=O)O)CC4)o3)cc2)c1NC(=O)O[C@H](C)c1ccccc1 [IT176]
2. Cc1nsc(-c2ccc(-c3cc(F)c(Oc4cccnc4C(=O)O)c(F)c3)cc2)c1NC(=O)O[C@H](C)c1ccccc1 [IT464]
3. Cc1onc(-c2cc3sc(C#CC4(C(=O)O)CC4)cc3s2)c1NC(=O)O[C@H](C)c1ccccc1 [IT418]

## Result
< 6.30
> 7.30
> 7.30

// each listed molecule needs a value for pEC50
1. C[C@@H](OC(=O)Nc1c(-c2ccc(-c3ccc(C(C(=O)O)C4COC4)cc3)cc2)cnn1C)c1ccccc1 (stereo partly drawn) [IT150]
2. C[C@@H](OC(=O)Nc1c(-c2ccc(-c3cc(F)c(Oc4ccncc4C(=O)O)c(F)c3)cc2)nnn1C)c1ccccc1 [IT453]

## Result
["6.30 to 7.30", "> 7.30"]

----------
Could you please report measured pEC50 for the items listed next?
biological target: LPA/S1P GPCR of interest (Homo sapiens, UniProt Q92633); assay: Beta-Arrestin based assay (PathHunter)
Sequence (Q92633 whole entry): as above
pEC50: −log10 of the molar value.

Observe how each entry below is paired with its result.
>>> print(df.to_string())
                            compound_string  quantity_name    data_value
0  Cc1nsc(-c2ccc(-c3cc(F)c(Oc4ccsc4C(=O)O)c(F)c3)cc2)c1NC(=O)O[C@H](C)c1ccccc1          pEC50        > 7.30
1  Cc1noc(-c2ccc(-c3ccc(Oc4nc5ccccc5cc4C(=O)O)cc3)cc2)c1NC(=O)O[C@H](C)c1ccccc1          pEC50        > 7.30
2  Cc1noc(-c2ccc(-c3cc(F)c(Oc4cccnc4C(=O)O)c(F)c3)cc2)c1NC(=O)O[C@H](C)c1ccccc1          pEC50        > 7.30
3  CC(=O)N(C(C)=O)S(=O)(=O)c1ccc(-c2ccc(-c3onc(C)c3NC(=O)O[C@H](C)c3ccccc3)cc2)cc1          pEC50        < 6.30
4  Cc1nsc(-c2cc3sc(-c4ccc(CC(=O)O)nc4)cc3s2)c1NC(=O)O[C@H](C)c1ccccc1          pEC50        < 6.30
5  C[C@@H](OC(=O)Nc1c(-c2cc3sc(-c4ccc(CC(=O)O)c(Cl)c4)cc3s2)nnn1C)c1ccccc1          pEC50  6.30 to 7.30
6  Cc1noc(-c2cc3sc(-c4cc(F)c(OC5(C(=O)O)CC5)c(F)c4)cc3s2)c1NC(=O)O[C@H](C)c1ccccc1          pEC50  6.30 to 7.30
7  Cc1noc(-c2ccc(-c3ccc(Oc4cccnc4C(=O)O)c(F)c3)cc2)c1NC(=O)O[C@H](C)c1ccccc1          pEC50        > 7.30
8  COc1cc(-c2cc3sc(-c4cnn(C)c4NC(=O)O[C@H](C)c4ccccc4)cc3s2)ccc1C1(C(=O)O)CC1          pEC50  6.30 to 7.30
9  C[C@@H](OC(=O)Nc1c(-c2cc3sc(-c4ccc(CC(=O)O)cc4Cl)cc3s2)nnn1C)c1ccccc1          pEC50        < 6.30

For each of the compounds below, state pEC50.
1. Cc1nsc(-c2cc3sc(-c4cnc(C5(C(=O)O)CC5)s4)cc3s2)c1NC(=O)O[C@H](C)c1ccccc1
2. Cc1noc(-c2ccc(-c3ccc(Oc4c(C(=O)O)ncn4C)cc3)cc2)c1NC(=O)O[C@H](C)c1ccccc1
3. Cc1noc(-c2ccc(-c3ccc(S(=O)(=O)NC(=O)C4CC4)cc3)cc2)c1NC(=O)O[C@H](C)c1ccccc1
4. Cc1nsc(-c2ccc(-c3nnc(C4(C(=O)O)CC4)s3)cc2)c1NC(=O)O[C@H](C)c1ccccc1
5. C[C@@H](OC(=O)Nc1c(C#Cc2cc(F)c(Oc3ncccc3C(=O)O)c(F)c2)cnn1C)c1ccccc1
6. Cc1cc(-c2cc3sc(-c4nnn(C)c4NC(=O)O[C@H](C)c4ccccc4)cc3s2)ccc1CC(=O)O
7. CC(=O)NS(=O)(=O)c1ccc(-c2ccc(-c3onc(C)c3NC(=O)O[C@H](C)c3ccccc3)cc2)cc1

## Result
1: < 6.30; 2: > 7.30; 3: > 7.30; 4: < 6.30; 5: 6.30 to 7.30; 6: 6.30 to 7.30; 7: 6.30 to 7.30

----------
Give measured EC50 for each item. Keep answers brief.
target: LPA/S1P GPCR of interest (Homo sapiens); experiment: Beta-Arrestin based assay (PathHunter)

Reference set, count: 8
In [3]: df
Out[3]:
                                   compound    data_value
0  Cc1cc(CC(=O)O)c(F)cc1-c1cc2sc(-c3cnn(C)c3NC(=O)O[C@H](C)c3ccccc3)cc2s1  50 to 500 nM
1  Cc1nsc(-c2cc3sc(-c4ccc(C5(C(=O)O)CC5)cc4F)cc3s2)c1NC(=O)O[C@H](C)c1ccccc1       < 50 nM
2  Cc1noc(-c2ccc(-c3ccc(Oc4ccc(F)cc4C(=O)O)cc3)cc2)c1NC(=O)O[C@H](C)c1ccccc1       < 50 nM
3  Cc1noc(-c2ccc(-c3ccc(NC(=O)OC(C)(C)C)cc3)cc2)c1NC(=O)O[C@H](C)c1ccccc1      > 500 nM
4  Cc1noc(-c2ccc(-c3ccc(Oc4c(C(=O)O)nn(C)c4C)cc3)cc2)c1NC(=O)O[C@H](C)c1ccccc1       < 50 nM
5  Cc1nsc(-c2cc3sc(-c4ccc5scc(C6(C(=O)O)CC6)c5c4)cc3s2)c1NC(=O)O[C@H](C)c1ccccc1      > 500 nM
6  Cc1nsc(-c2cc3sc(-c4ccc(CC(=O)O)cc4)cc3s2)c1NC(=O)O[C@H](C)c1ccccc1  50 to 500 nM
7  CCC(C)OC(=O)Nc1c(C)noc1-c1ccc(-c2ccc(Oc3ccccc3C(=O)O)cc2)cc1 (single isomer, unassigned) [IT493]  50 to 500 nM

For each listed entry, give its EC50.
1. C[C@@H](OC(=O)Nc1c(-c2cc3sc(-c4ccc(CC(=O)O)cc4)cc3s2)nnn1C)c1ccccc1
2. Cc1noc(-c2ccc(-c3cc(F)c(C4(C(=O)O)CC4)c(F)c3)cc2)c1NC(=O)O[C@H](C)c1ccccc1
3. Cc1nsc(-c2ccc(-c3cc(F)c(OC(C)(C)C(=O)O)c(F)c3)cc2)c1NC(=O)O[C@H](C)c1ccccc1
4. Cc1noc(-c2ccc(-c3ccc(OC(C)C(=O)O)cc3)cc2)c1NC(=O)O[C@H](C)c1ccccc1 (single isomer, unassigned) [IT238]
5. Cc1nsc(-c2ccc(NC(=O)c3csc(C4(C(=O)O)CC4)c3)cc2)c1NC(=O)O[C@H](C)c1ccccc1

## Result
50 to 500 nM
< 50 nM
50 to 500 nM
50 to 500 nM
50 to 500 nM

## Task What value of EC50 has been recorded for this entry: C[C@@H](OC(=O)Nc1c(-c2ccc(-c3ccc(OC4(C(=O)O)CC4)cc3)cc2)cnn1C)c1ccccc1
## Result < 50 nM
